- test-summary: soluble on expression in E. coli; label from the status in PepcDB or PDB records
measured-metric: soluble on expression in E. coli

• HKEFAVTMRPTEASERCHLRGSYTLRAGESALELWGGPEPGTQLYDWPYRFLRRFGRDKVTFSFEAGRRCVSGEGNFEFETRQGNEIFLALEEAISAQKN = soluble
• GAMAPSTIWHCFLKGTRLCFHKESNKEWQDVEDFARAASCDNEEEIQMGTHKGYGSDGLKLLSHEESVSFGESVLKLTFDPGTVEDGLLTVECKLDHPFYVKNKGWSSFYPSLTVVQHGIPCCEIHIGDVCLPPGHPDAINF = soluble
• MASKPEKRVASSVFITLAPPRRDV = soluble

====

- test-summary: soluble on expression in E. coli; label from the status in PepcDB or PDB records
measured-metric: soluble on expression in E. coli

* MSIRSLGYLRIEATDMAAWREYGLKVLGMVEGKGAPEGALYLRMDDFPARLVVVPGEHDRLLEAGWECANAEGLQEIRNRLDLEGTPYKEATAAELADRRVDEMIRFADPSGNCLEVFHGTALEHRRVVSPYGHRFVTGEQGMGHVVLSTRDDAEALHFYRDVLGFRLRDSMRLPPQMVGRPADGPPAWLRFFGCNPRHHSLAFLPMPTSSGIVHLMVEVEQADDVGLCLDRALRRKVPMSATLGRHVNDLMLSFYMKTPGGFDIEFGCEGRQVDDRDWIARESTAVSLWGHDFTVGARG | soluble
* MGHHHHHHSHMRVFIIHLSPKTCQNFSLKETHITPLLESLKLQGISYEIFDAIYSKISPTQLHPLILEHLHPSFMVEDLWAFCKNKKHPPCALKNFFYAIKHCGKRMGFGELGCYASHYSLWQKCIELNEAICILEDDIIIKDRFKESLEFCRHHINELGYIRLMHLEENVAKQKTPVKGVSQILNFKDGIGTQGYVLAPKAAQKLLKYSAKEWVMPIDCVMDRHYWHGVKNYVLEEFAIACDGMNAQNSNTEKQRPKKLPLSIRIGRSLHKSTIKFLDKVFRYSPKLIRIGKH | soluble

====

- test-summary: soluble on expression in E. coli; label from the status in PepcDB or PDB records
measured-metric: soluble on expression in E. coli

Example cases with answers are listed next.
• MGSDKIHHHHHHMDRVLFLAMTGAKHEAWQQATTANNLANVNTNAFKADLAAYRALPVVGDGAPTRTYVVDNTIGFDASQGSLQHTGNPSDFALGTPGFFAVQGADGQEAYTRDGGYVLDATGLMRTHSGLLIMGDGGPITVPAGSQVQLGSDGSVMAVPQSGANRAPQLVGQIKMVNPGPKDVYKGEDKLFHVNGGGTLPASADVKLVPETLESSNVNSVEALVQMISHGRQYELNIKMMQTSQQNDQQAAQLLSMS = not soluble
• GSFTMPGLVDSNPAPPESQEKKPLKPCCACPETKKARDACIIEKGEEHCGHLIEAHKECMRALGFKI = soluble
• MGSDKIHHHHHHMDVLVVGATGTLGRQIARRALDEGHRVRCLVRSPKRGNFLREWGCDLVRGDLTQPESLTFALEGIEAVIDAATTRSTDSLSCYDVDWQGKVNLIKAATEAGVQRFVFCSIIDAEKHRDVPLMDIKYCTEEFLRQSGLNYTILRLAGFMQGLIAEFAIPVLEGRTAFITQDSDPIAYLSTLDIARFAVAALTTPATEKQTLPVVGPKAWSGLEIFRLCERLSGKETKIARLPLATVSAMKRFFRFFQWGWNIADRLAFSEVMACGRPFTADMAATYTAFGIDPAEITGLESYLNDYFSVMLRRLKELEFDQKKDKKKKVPF = not soluble
• VVKLAFPRELRLLTPSQFTFVFQQPQRAGTPQITILGRLNSLGHPRIGLTVAKKNVRRAHERNRIKRLTRESFRLRQHELPAMDFVVVAKKGVADLDNRALSEALEKLWRRHCRLARGS = soluble

Turning now to a further record.
Return the recorded soluble on expression in E. coli value; entry: `SLKYCIHNTRLIIGIADRVIENGSILFDQDKILKVSAHSITDADVFIDGTTFSVLPGLIDVHVHLGMDCSVDPFDTMENTEDAFTSFIAYKQGLQFLRAGITTVRNLGTKNNVDIIYKKAVESGLVIGPRVYAAGQPLIMTGGHGQPMGTEVDGKDEVIKATRQRIKEGADLIKIMATGGVLTKGNHPGAVHFNVDELKCICQEAAKASLTTAAHAIGLNGVKNAIKAGVNTIEHGYYLDKETVDTMRDLGIYLTPTLLAPTLLQKNSEHIPQHMIDKIEEIEKEHRKSFRLALERGVKIIAGTDAGTPFNNPGQLVEELKIMLEEGMTTAQAIESATYLGAKCLKVDSLIGSLEEQKLADLIVVKGNPLEDISNLKNIQHVFKGGVRLYPDQIH` soluble
